# method_description: refractive index (Na D-line) (dimensionless); xn = mol fraction of the nth substance listed
# cond: 318.15 K; 101.32 kPa; Liquid; Standard Abbe refractometry; x1 = 0.0205
Exercise: state measured refractive index for each of the compounds provided.
Numbers only.

Take a look at these entries with their results.
[[record]]
compound = "COCCOCCOC [2,5,8-trioxanonane] + CCO"
measured = 1.3532

[[record]]
compound = "COCCOC [1,2-dimethoxyethane] + CCO"
measured = 1.3515


Provide each entry's refractive index from the list below.
1. COCCOCCOCCOC [2,5,8,11-tetraoxadodecane] + CCO
2. COCCOCCOCCOCCOC [2,5,8,11,14-pentaoxapentadecane] + CCO

1. 1.3548
2. 1.3567

---

Exercise: state measured mass density for each of the molecules provided.
# method_description: xn = mol fraction of the nth substance listed
# cond: 318.15 K; 101.32 kPa; Liquid; x1 = 0.25
± gives the expanded uncertainty stated by the source.
Don't forget the unit after the value.

Take a look at these entries with their results.
[[record]]
molecule = "COCCOCCOCCOC [2,5,8,11-tetraoxadodecane] + CCO"
reported_property = "mass density"
measured = "869.2 ± 0.4 kg/m3"

[[record]]
molecule = "COCCOC [1,2-dimethoxyethane] + CCO"
reported_property = "mass density"
measured = "796.3 ± 0.4 kg/m3"

[[record]]
molecule = "COCCOCCOCCOCCOC [2,5,8,11,14-pentaoxapentadecane] + CCO"
reported_property = "mass density"
measured = "895.7 ± 0.3 kg/m3"


Please examine the following record next.
# molecule COCCOCCOC [2,5,8-trioxanonane] + CCO ; its mass density = 837.8 ± 0.4 kg/m3

---

# method_description: refractive index (Na D-line) (dimensionless); xn = mol fraction of the nth substance listed
# cond: 318.15 K; 101.32 kPa; Liquid; Standard Abbe refractometry; x1 = 0.05
± gives the expanded uncertainty stated by the source.
reported_property: refractive index

[[record]]
molecule = "COCCOCCOCCOCCOC [2,5,8,11,14-pentaoxapentadecane] + CCO"
measured = "1.3641 ± 0.0003"

[[record]]
molecule = "COCCOCCOC [2,5,8-trioxanonane] + CCO"
measured = "1.3564 ± 0.0005"

[[record]]
molecule = "COCCOCCOCCOC [2,5,8,11-tetraoxadodecane] + CCO"
measured = "1.3602 ± 0.0005"


Please examine the following record next.
# molecule COCCOC [1,2-dimethoxyethane] + CCO ; its refractive index = 1.3524 ± 0.0005

---

Exercise: state measured refractive index for each of the molecules provided.
# method_description: refractive index (Na D-line) (dimensionless); xn = mol fraction of the nth substance listed
# cond: 288.15 K; 101.32 kPa; Liquid; Standard Abbe refractometry; x1 = 0.55
Give bare numbers.

Take a look at these entries with their results.
[[record]]
molecule = "COCCOC [1,2-dimethoxyethane] + CCO"
reported_property = "refractive index"
measured = 1.3768

[[record]]
molecule = "COCCOCCOCCOCCOC [2,5,8,11,14-pentaoxapentadecane] + CCO"
reported_property = "refractive index"
measured = 1.423

[[record]]
molecule = "COCCOCCOC [2,5,8-trioxanonane] + CCO"
reported_property = "refractive index"
measured = 1.399


Please examine the following record next.
# molecule COCCOCCOCCOC [2,5,8,11-tetraoxadodecane] + CCO ; its refractive index = 1.4131

---

Exercise: state measured mass density for each of the compounds provided.
# method_description: xn = mol fraction of the nth substance listed
# cond: 298.15 K; 101.32 kPa; Liquid; x1 = 0.7999
One number for each entry, in kg/m3.

Provide each entry's mass density from the list below.
1. COCCOCCOCCOC [2,5,8,11-tetraoxadodecane] + CCO
2. COCCOCCOCCOCCOC [2,5,8,11,14-pentaoxapentadecane] + CCO
3. COCCOC [1,2-dimethoxyethane] + CCO
4. COCCOCCOC [2,5,8-trioxanonane] + CCO

1. 966.5
2. 994.2
3. 853.1
4. 925.4

---

# method_description: xn = mol fraction of the nth substance listed
# cond: 298.15 K; 101.32 kPa; Liquid; x1 = 0.05
reported_property: mass density (kg/m3)
Give bare numbers, in kg/m3.

Take a look at these entries with their results.
[[record]]
molecule = "COCCOCCOC [2,5,8-trioxanonane] + CCO"
reported_property = "mass density"
measured = 803.8

[[record]]
molecule = "COCCOC [1,2-dimethoxyethane] + CCO"
reported_property = "mass density"
measured = 792.5

[[record]]
molecule = "COCCOCCOCCOCCOC [2,5,8,11,14-pentaoxapentadecane] + CCO"
reported_property = "mass density"
measured = 824.9


Please examine the following record next.
# molecule COCCOCCOCCOC [2,5,8,11-tetraoxadodecane] + CCO ; its mass density = 814.2

---

# method_description: refractive index (Na D-line) (dimensionless)
# cond: 308.15 K; 101.33 kPa; Liquid; Standard Abbe refractometry
reported_property: refractive index
Answers are plain numbers.

Take a look at these entries with their results.
[[record]]
smiles_representation = "COCCOC"
measured = 1.3722

[[record]]
smiles_representation = "COCCOCCOCCOCCOC"
measured = 1.4262

[[record]]
smiles_representation = "CCO"
measured = 1.3551


Provide each entry's refractive index from the list below.
1. COCCOCCOCCOC
2. COCCOCCOC

1: 1.4167; 2: 1.4012

---

# method_description: refractive index (Na D-line) (dimensionless); xn = mol fraction of the nth substance listed
# cond: 318.15 K; 101.32 kPa; Liquid; Standard Abbe refractometry; x1 = 0.4
reported_property: refractive index
Answers are plain numbers.

Provide each entry's refractive index from the list below.
1. COCCOCCOCCOCCOC [2,5,8,11,14-pentaoxapentadecane] + CCO
2. COCCOCCOC [2,5,8-trioxanonane] + CCO
3. COCCOCCOCCOC [2,5,8,11-tetraoxadodecane] + CCO
4. COCCOC [1,2-dimethoxyethane] + CCO

1. 1.404
2. 1.3803
3. 1.3939
4. 1.3605

---

# method_description: refractive index (Na D-line) (dimensionless); xn = mol fraction of the nth substance listed
# cond: 308.15 K; 101.32 kPa; Liquid; Standard Abbe refractometry; x1 = 0.35
Exercise: state measured refractive index for each of the compounds provided.
Give bare numbers.

[[record]]
compound = "COCCOCCOC [2,5,8-trioxanonane] + CCO"
reported_property = "refractive index"
measured = 1.3823


Provide each entry's refractive index from the list below.
1. COCCOCCOCCOC [2,5,8,11-tetraoxadodecane] + CCO
2. COCCOC [1,2-dimethoxyethane] + CCO
3. COCCOCCOCCOCCOC [2,5,8,11,14-pentaoxapentadecane] + CCO

1.395
1.3641
1.4049

---

# method_description: refractive index (Na D-line) (dimensionless); xn = mol fraction of the nth substance listed
# cond: 298.15 K; 101.32 kPa; Liquid; Standard Abbe refractometry; x1 = 0.15
reported_property: refractive index
Answers are plain numbers.

[[record]]
molecule = "COCCOCCOCCOCCOC [2,5,8,11,14-pentaoxapentadecane] + CCO"
measured = 1.3897

[[record]]
molecule = "COCCOCCOCCOC [2,5,8,11-tetraoxadodecane] + CCO"
measured = 1.3823

[[record]]
molecule = "COCCOC [1,2-dimethoxyethane] + CCO"
measured = 1.3639


# molecule COCCOCCOC [2,5,8-trioxanonane] + CCO ; its refractive index = 1.3739

---

# method_description: xn = mol fraction of the nth substance listed
# cond: 288.15 K; 101.32 kPa; Liquid; x1 = 0.7999
reported_property: mass density (kg/m3)
Give bare numbers, in kg/m3.

Take a look at these entries with their results.
[[record]]
molecule = "COCCOCCOC [2,5,8-trioxanonane] + CCO"
endpoint_unit = "kg/m3"
measured = 935.3

[[record]]
molecule = "COCCOCCOCCOC [2,5,8,11-tetraoxadodecane] + CCO"
endpoint_unit = "kg/m3"
measured = 976.1

[[record]]
molecule = "COCCOCCOCCOCCOC [2,5,8,11,14-pentaoxapentadecane] + CCO"
endpoint_unit = "kg/m3"
measured = 1003.6


# molecule COCCOC [1,2-dimethoxyethane] + CCO ; its mass density = 863.7

---

Exercise: state measured mass density for each of the compounds provided.
# method_description: xn = mol fraction of the nth substance listed
# cond: 298.15 K; 101.32 kPa; Liquid; x1 = 0.25
Numbers only, in kg/m3.

[[record]]
compound = "COCCOCCOCCOC [2,5,8,11-tetraoxadodecane] + CCO"
measured = 887.7

[[record]]
compound = "COCCOC [1,2-dimethoxyethane] + CCO"
measured = 815.7

[[record]]
compound = "COCCOCCOCCOCCOC [2,5,8,11,14-pentaoxapentadecane] + CCO"
measured = 914.1


Please examine the following record next.
# compound COCCOCCOC [2,5,8-trioxanonane] + CCO ; its mass density = 856.6
